test: growth inhibition of DIPG glioma cells, dose response, cell-based, SU-DIPG-XVII, MIPE5.0, CellTiter-Glo, qHTS (AID 1347060); conditions: SU-DIPG-XVII viability, CellTiter-Glo ATP luminescence;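 as to AC50: cells exposed to compound for 48 hours before viability readout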
Results filed as inconclusive are left out. Activity calls are given as the source filed them. The limit is not given here; nearly all actives have AC50 up to about 26 µM.

# Compound, AC50
rows = [
    ("Cn1c(/C=C/CO)c(CO)c2c1C(=O)C=C(N1CC1)C2=O", "inactive"),
    ("CCOP(=O)(OCC)C(C)NC(=O)N(CCCl)N=O (centres undefined)", "inactive"),
    ("CN(C)[C@@H]1C(=O)C(C(N)=O)=C(O)[C@@]2(O)C(=O)C3=C(O)c4c(O)cccc4[C@@](C)(O)[C@H]3C[C@@H]12", "inactive"),
    ("C[C@@H]1O[C@@H](O[C@@H]2C=C3CC[C@@H]4[C@H](CC[C@]5(C)[C@@H](c6ccc(=O)oc6)CC[C@]45O)[C@@]3(C)CC2)[C@H](O)[C@H](O)[C@H]1O", "14.8 nM (active)"),
]
